Recorded koff for the following binders
biological target: T1, Human DDR1 extracellular domain (ECD) protein (human, UniProt Q08345 21-417); assay: BLI (Octet 96-Red), antibody on protein A biosensors, recombinant DDR1 0.1-200 nM, 1:1 fit
T1 construct: also called recombinant human DDR1 ECD; huDDR1 ECD; not shown: 6xHIS-tag
T1 sequence (Q08345 21-417): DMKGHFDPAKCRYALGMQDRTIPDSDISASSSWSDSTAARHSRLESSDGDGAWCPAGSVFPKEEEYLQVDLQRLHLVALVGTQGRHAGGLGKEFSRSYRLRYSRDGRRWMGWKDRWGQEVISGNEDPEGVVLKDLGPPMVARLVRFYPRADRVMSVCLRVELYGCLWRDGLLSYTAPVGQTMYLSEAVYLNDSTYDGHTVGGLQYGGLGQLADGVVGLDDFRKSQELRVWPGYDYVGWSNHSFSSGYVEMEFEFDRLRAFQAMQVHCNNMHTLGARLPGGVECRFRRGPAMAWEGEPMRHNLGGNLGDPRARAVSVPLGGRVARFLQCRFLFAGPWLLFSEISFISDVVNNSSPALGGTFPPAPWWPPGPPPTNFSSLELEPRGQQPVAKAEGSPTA
// note: answer is a bare numeric in s⁻¹

Examples from the recorded data:
- DDR1-3 (antibody, V domains shown, Rabbit variable domains; also called anti-huDDR1 antibody #3; DDR1-3K/DDR1-3H) VH: QSVKESGGRLVTPGTPLTLTCTVSGIDLSSYAMSWVRQAPGKGLEWIGTINIGGGTWDATWARGRFTISRTSTTVDLKITSPTIGDTATYFCARDVDAHTLTYFTLWGPGTLVTISS VL: ELVLTQTPASVSEPVGGTVTIKCQASQTISSWLSWYQQKPGQPPKLLIYYAFNLASGVPSRFKGSGSGTEFTLTISDLECADAATYYCQQGISSSNVDNVFGGGTEVVVK: 0.00191
- DDR1-33 (antibody, V domains shown, Rabbit variable domains; also called anti-huDDR1 #33 antibody; DDR1-33K/DDR1-33H) VH: QSVEESGGRLVTPGGSLTLTCTVSGFSLSSYDMSWVRQAPGKGLEWIGISWNSGFVDYASWAKGRFSISKTSTTVDLKITSPTTEDTATYFCARLGADDIYYFNLWGPGTLVTISS VL: ELVMTQTPASVEAAVGGTVTIKCQASETISSRLAWYQQKPGQPPKLLIYQASKLPSGVPSRFKGTGSGTEYTLTISDLECADAATYYCQGCYYGGGSFYDSAFGGGTEVVVK: 0.000493
- DDR1-9 (antibody, V domains shown, Rabbit variable domains; also called anti-huDDR1 antibody #9; DDR1-9K/DDR1-9H) VH: QSLEESGGRLVTPGTPLTLTCTASGFSLNRYYMLWVRQAPGEGLEWIGTISYGDTTYYASWAKGRFTISKTSTTVDLKMTSPTTEDTATYFCARADTGDNGYLGLQLWGPGTLVTVSS VL: ELVMTQTPASVEAAVGGTVTIKCQASQSIGSVLAWYQQKPGQRPKLLISGVFDLASGVPSRFKGSGSGTEFTLTISDLECADAATYYCQYIPYGSSPFGGGTEVVVK: 7.35e-05

Then this binder:
Given the entry DDR1-14 (antibody, V domains shown, Rabbit variable domains; also called anti-huDDR1 antibody #14; DDR1-14K/DDR1-14H) VH: QSVKESGGRLVTPGTPLTLTCTVSGIDLSYYAMSWVRQAPGKGLEYIGIINGRGDTGYATWAKGRFTISKTSTTVDLRITSPTIEDTATYFCAREDSAIPFIVGNYYGMDLWGPGTLVTVSS VL: ELDMTQTPASVSEPVGGTVTIKCQASQSISSYLAWYQQKPGQPPKRLIFEASTLASGVPSRFSGSGSGTDFTLTISDLECADAATYYCQNNNGFSGSNFNNFGGGTEVEIK , report its measured koff.
2.27e-05
